- MEASUREMENT_DESCRIPTION: yeast display, Sf9 membrane polyspecificity reagent, FACS + sequencing; frameworks hold sequencing errors

SEQUENCE_INPUT	polyreactivity (PSR sort gate)
QVQLVESGGGLVQAGGSLRLSCAASGSFINRYAMGWYRQAPGKERELVAAITQSGGRTYYADSVKGRFTISRDNAKNTVYLQMNSLKPEDTAVYYCNAVRWYLYDYWGQGTQVTVSS	high polyreactivity
QVQIVESGGGLVQAGGSLRLSCAASGYIVRNAMGWYRQAPGKERELVAAISRRGGRTYYADSVKGRFTISRDNAKNTVYLQMHSLKPEDTAVYYCNKLPGTPRSLATGDYWGQGTQVTVSS	high polyreactivity
QVQLVESGGGLVQAGGSLRLSCAASGRTIRYNALGWYREARGKERELVASIRRGGSTNYADSVKGRCTISRDNAKNPVYLHMNSLKPEDTAVSYCAAAGGGVRKVWGGSRYGYWGQGTQVTVSS	high polyreactivity
QVQLQESGGRLVQADGSLRLSCAASGSIFGYYYMGWYRQAPGKDRELVATINICGITNYADSVKGRFTISRDNAKNTVYLQMNSLKPDDTAVYYCAADEYAQRDLGYWGQGTQVTVSS	low polyreactivity
QVQLVESGGGLVQAGGSLRLSCAASGRIFPVYAMGWYRQAPGKEREFVAAIRGTGTSTYYADSVKGRFTISRDNAKNTVYLQMNSLKPEDTAVYYCAASAGYAYNYWGQGTQVTVSS	low polyreactivity
